Listed binders paired with reported EC50
Substrate: NP of A/Brisbane/59/2007(H1N1/H1B) (influenza A virus A/Brisbane/59/2007 (H1N1))
assay.protocol: ELISA on virus-infected fixed MDCK cells

{"columns": ["binder", "EC50, nM"],
 "data": [
  ["NP16 (antibody, V domains shown) VH: EVQLVESGGGLVQPGGSLRLSCAASGFTIGNSGIHWVRQAPGKGLEWVAWIGPYWGFTSYADSVKGRFTISADTSKNTAYLQMNSLRAEDTAVYYCARFGNHWHLFMDYWGQGTLVTVSS VL: DIQMTQSPSSLSASVGDRVTITCRASQDVGSYVAWYQQKPGKAPKLLISWTTGLYSGVPSRFSGSGSGTDFTLTISSLQPEDFATYYCQQYFSYPVTFGQGTKVEIKR", 0.21],
  ["NP3 (antibody, V domains shown) VH: EVQLVESGGGLVQPGGSLRLSCAASGFTISNYGIHWVRQAPGKGLEWVAGIWPFGGFTSYADSVKGRFTISADTSKNTAYLQMNSLRAEDTAVYYCARFHWNDHGYMDYWGQGTLVTVSS VL: DIQMTQSPSSLSASVGDRVTITCRASQDVGWYVAWYQQKPGKAPKLLIYSTTGLYSGVPSRFSGSGSGTDFTLTISSLQPEDFATYYCQQYYNYPITFGQGTKVEIKR", 0.521]
]}

Data provenance: patent US20230212554A1
